These entries and their values trace back to patent US6432920B1.

# targetOrSystem: Src SH3-GST (Homo sapiens, UniProt P12931)
# Construct: Bacterially expressed Src SH3 glutathione-S-transferase (Src-GST) fusion protein was purified from bacterial lysates; made in house; host or cells: bacteria (pGEX vector)
# testSummary: Biotinylated synthetic peptide binding ELISA to immobilized Src SH3-GST
# conditionNotes: Src family versus Grb2, Crk, Abl, PLCγ SH3 domains, FIG. 8
# Method: These biotinylated peptides were assayed for direct binding to immobilized Src SH3-GST. […] The preparation of Src-GST fusion protein was first described by Smith and Johnson, in Gene (1988) 67:31, the disclosure of which is incorporated by reference herein. […] Thus, fusion proteins were prepared as per the manufacturer's instructions, and quantified by Coomassie Blue staining of SDS-polyacrylamide gels. […]
reportedMetric: relative specificity of binding for SH3 domains of different proteins

In [3]: df
Out[3]:
                              querysequence         obsvalue
0  RSTPRPLPPLPTTR [representative consensus motif with flanking residues of R8C.YES3.5]  highly specific
1  RSTPRPLPMLPTTR [synthetic peptide of phage clone R8C.YES3.5]  highly specific

----------
# targetOrSystem: Src SH3-GST (Homo sapiens)
# Construct: Bacterially expressed Src SH3 glutathione-S-transferase (Src-GST) fusion protein was purified from bacterial lysates; made in house; host or cells: bacteria (pGEX vector)
# testSummary: Biotinylated synthetic peptide binding ELISA to immobilized Src SH3-GST
# conditionNotes: 10 μM biotinylated peptide, streptavidin-alkaline phosphatase ELISA, FIGS. 7 and 8
reportedMetric: binding to Src SH3 domain (Src SH3-GST)

                              querysequence                           reportedmetric        obsvalue
0    KISPPTPKPRPPRPLPV [reference compound]  binding to Src SH3 domain (Src SH3-GST)  much less well
1  GTVEPVPPPVPPRRRPESA [reference compound]  binding to Src SH3 domain (Src SH3-GST)  much less well
2  LAPPKPPLPEGEV [proline-rich region of the cytoskeletal protein vinculin, control peptide, reference compound]  binding to Src SH3 domain (Src SH3-GST)  much less well
